tested on: T-47D cells; test: Caspase cascade activation (N-(Ac-DEVD)-N'-ethoxycarbonyl-R110 fluorogenic substrate) in T-47D cells; assay type: cell-based, Human; settings: caspase activity: ratio of net RFU of test compound to control, 48 h incubation
Property Measured: T47 Ratio 48 hr

Illustrative cases are given below, each with its answer.
Item Smiles: FC(F)(F)c1cc(Nc2ccc3[nH]ccc3c2)nc(-c2cccnc2)n1
Property Measured: T47 Ratio 48 hr
Result: 8.0
//
Item Smiles: COc1ccc(C)c(Nc2cc(C(F)(F)F)nc(-c3ccncc3)n2)c1
Property Measured: T47 Ratio 48 hr
Result: 8.4
//
Item Smiles: COc1cccc(N(C)c2cc(C(F)(F)F)nc(-c3ccccn3)n2)c1
Property Measured: T47 Ratio 48 hr
Result: 1.0
//
Item Smiles: Oc1ccc(Cl)c(Nc2cc(C(F)(F)F)nc(-c3cnccn3)n2)c1
Property Measured: T47 Ratio 48 hr
Result: 11.7

Return T47 Ratio 48 hr (reported value) for this molecule: `COc1ccc(OC)c(Nc2cc(C(F)(F)F)nc(-c3ccccc3)n2)c1` 16.3

Read the entry `Cc1ccc(C#N)c(Nc2cc(C(F)(F)F)nc(-c3cccnc3)n2)c1` and write its reported T47 Ratio 48 hr. 8.2
